assay: Hemolytic activity against mouse RBC at 7.8 ug/ml after 60 mins; format: ADME, cell-based, Erythrocyte; details: red blood cells, read-out: Activity

compound: CCCCCCCCCCCCCCCCSC[C@@H]1O[C@@H](O[C@@H]2[C@@H](O)[C@H](O[C@@H]3O[C@@H](CN)[C@H](O)[C@@H](O)[C@@H]3N)[C@@H](N)C[C@H]2N)[C@@H](O)[C@H](N)[C@H]1O (stereo in doubt)
hemolysis at 1 h, 7.8 ug/ml, %: 16
//
compound: CCCCCCCCCCCCCCSC[C@@H]1O[C@@H](O[C@@H]2[C@@H](O)[C@H](O[C@@H]3O[C@@H](CN)[C@H](O)[C@@H](O)[C@@H]3N)[C@@H](N)C[C@H]2N)[C@@H](O)[C@H](N)[C@H]1O (stereo in doubt)
hemolysis at 1 h, 7.8 ug/ml, %: 15

---

tested on: Candida albicans; experiment: Antifungal activity against azole-resistant Candida albicans MYA-1003 after 48 hrs by microbroth dilution method; assay type: functional; details: MYA-1003, 48 h

molecule: CCCCCCCCCCCCCCCCSC[C@@H]1O[C@@H](O[C@@H]2[C@@H](O)[C@H](O[C@@H]3O[C@@H](CN)[C@H](O)[C@@H](O)[C@@H]3N)[C@@H](N)C[C@H]2N)[C@@H](O)[C@H](N)[C@H]1O (stereo in doubt)
value_prefix: =
MIC / µg/mL: 3.9

molecule: CCCCCCCCCCSC[C@@H]1O[C@@H](O[C@@H]2[C@@H](O)[C@H](O[C@@H]3O[C@@H](CN)[C@H](O)[C@@H](O)[C@@H]3N)[C@@H](N)C[C@H]2N)[C@@H](O)[C@H](N)[C@H]1O (stereo in doubt)
value_prefix: =
MIC / µg/mL: 125

molecule: CCCCCCCCCCCCS(=O)(=O)C[C@@H]1O[C@@H](O[C@@H]2[C@@H](O)[C@H](O[C@@H]3O[C@@H](CN)[C@H](O)[C@@H](O)[C@@H]3N)[C@@H](N)C[C@H]2N)[C@@H](O)[C@H](N)[C@H]1O (stereo in doubt)
value_prefix: =
MIC / µg/mL: 62.5

molecule: CCCCCCCCCCCCCCSC[C@@H]1O[C@@H](O[C@@H]2[C@@H](O)[C@H](O[C@@H]3O[C@@H](CN)[C@H](O)[C@@H](O)[C@@H]3N)[C@@H](N)C[C@H]2N)[C@@H](O)[C@H](N)[C@H]1O (stereo in doubt)
value_prefix: =
MIC / µg/mL: 7.8

molecule: NC[C@H]1O[C@H](O[C@H]2[C@H](O)[C@@H](O[C@H]3O[C@H](CO)[C@@H](O)[C@H](N)[C@H]3O)[C@H](N)C[C@@H]2N)[C@H](N)[C@@H](O)[C@@H]1O
value_prefix: >
MIC / µg/mL: 125

molecule: CCCCCCCCCCCCCCS(=O)(=O)C[C@@H]1O[C@@H](O[C@@H]2[C@@H](O)[C@H](O[C@@H]3O[C@@H](CN)[C@H](O)[C@@H](O)[C@@H]3N)[C@@H](N)C[C@H]2N)[C@@H](O)[C@H](N)[C@H]1O (stereo in doubt)
value_prefix: =
MIC / µg/mL: 7.8

molecule: CCCCCCCCSC[C@@H]1O[C@@H](O[C@@H]2[C@@H](O)[C@H](O[C@@H]3O[C@@H](CN)[C@H](O)[C@@H](O)[C@@H]3N)[C@@H](N)C[C@H]2N)[C@@H](O)[C@H](N)[C@H]1O (stereo in doubt)
value_prefix: >
MIC / µg/mL: 125

molecule: CCCCCCCCCCCCSC[C@@H]1O[C@@H](O[C@@H]2[C@@H](O)[C@H](O[C@@H]3O[C@@H](CN)[C@H](O)[C@@H](O)[C@@H]3N)[C@@H](N)C[C@H]2N)[C@@H](O)[C@H](N)[C@H]1O (stereo in doubt)
value_prefix: =
MIC / µg/mL: 31.2

---

tested on: Acinetobacter baumannii; assay: Antibacterial activity against Acinetobacter baumannii ATCC 19606 by microdilution method; type: functional
Quick reference for MIC among some molecules

molecule: CCCCCCCCCCCCS(=O)(=O)C[C@@H]1O[C@@H](O[C@@H]2[C@@H](O)[C@H](O[C@@H]3O[C@@H](CN)[C@H](O)[C@@H](O)[C@@H]3N)[C@@H](N)C[C@H]2N)[C@@H](O)[C@H](N)[C@H]1O (stereo in doubt)
MIC: 128 µg/mL
--
molecule: NC[C@H]1O[C@H](O[C@H]2[C@H](O)[C@@H](O[C@H]3O[C@H](CO)[C@@H](O)[C@H](N)[C@H]3O)[C@H](N)C[C@@H]2N)[C@H](O)[C@@H](O)[C@@H]1O
MIC: 4 µg/mL
--
molecule: CCCCCCCCCCSC[C@@H]1O[C@@H](O[C@@H]2[C@@H](O)[C@H](O[C@@H]3O[C@@H](CN)[C@H](O)[C@@H](O)[C@@H]3N)[C@@H](N)C[C@H]2N)[C@@H](O)[C@H](N)[C@H]1O (stereo in doubt)
MIC: > 128 µg/mL
--
molecule: CCCCCCCCCCCCSC[C@@H]1O[C@@H](O[C@@H]2[C@@H](O)[C@H](O[C@@H]3O[C@@H](CN)[C@H](O)[C@@H](O)[C@@H]3N)[C@@H](N)C[C@H]2N)[C@@H](O)[C@H](N)[C@H]1O (stereo in doubt)
MIC: > 128 µg/mL
--
molecule: CCCCCCCCCCCCCCS(=O)(=O)C[C@@H]1O[C@@H](O[C@@H]2[C@@H](O)[C@H](O[C@@H]3O[C@@H](CN)[C@H](O)[C@@H](O)[C@@H]3N)[C@@H](N)C[C@H]2N)[C@@H](O)[C@H](N)[C@H]1O (stereo in doubt)
MIC: > 128 µg/mL
--
molecule: CCCCCCCCCCCCCCSC[C@@H]1O[C@@H](O[C@@H]2[C@@H](O)[C@H](O[C@@H]3O[C@@H](CN)[C@H](O)[C@@H](O)[C@@H]3N)[C@@H](N)C[C@H]2N)[C@@H](O)[C@H](N)[C@H]1O (stereo in doubt)
MIC: > 128 µg/mL

---

test system: Aspergillus nidulans; experiment: Antifungal activity against Aspergillus nidulans ATCC 38163 after 48 hrs by microbroth dilution method; type: functional; conditions: ATCC 38163, 48 h
measured_metric: MIC (µg/mL)

compound: CCCCCCCCCCCCCCCCSC[C@@H]1O[C@@H](O[C@@H]2[C@@H](O)[C@H](O[C@@H]3O[C@@H](CN)[C@H](O)[C@@H](O)[C@@H]3N)[C@@H](N)C[C@H]2N)[C@@H](O)[C@H](N)[C@H]1O (stereo in doubt)
value_prefix: =
numeric_readout: 1.95
//
compound: OC(Cn1cncn1)(Cn1cncn1)c1ccc(F)cc1F
value_prefix: >
numeric_readout: 62.5
//
compound: NC[C@H]1O[C@H](O[C@H]2[C@H](O)[C@@H](O[C@H]3O[C@H](CO)[C@@H](O)[C@H](N)[C@H]3O)[C@H](N)C[C@@H]2N)[C@H](N)[C@@H](O)[C@@H]1O
value_prefix: >
numeric_readout: 125
//
compound: CCCCCCCCCCCCSC[C@@H]1O[C@@H](O[C@@H]2[C@@H](O)[C@H](O[C@@H]3O[C@@H](CN)[C@H](O)[C@@H](O)[C@@H]3N)[C@@H](N)C[C@H]2N)[C@@H](O)[C@H](N)[C@H]1O (stereo in doubt)
value_prefix: ≤
numeric_readout: 1.95
//
compound: CCCCCCCCSC[C@@H]1O[C@@H](O[C@@H]2[C@@H](O)[C@H](O[C@@H]3O[C@@H](CN)[C@H](O)[C@@H](O)[C@@H]3N)[C@@H](N)C[C@H]2N)[C@@H](O)[C@H](N)[C@H]1O (stereo in doubt)
value_prefix: =
numeric_readout: 15.6
//
compound: CCCCCCCCCCCCSC[C@H]1O[C@H](O[C@@H]2[C@@H](O)[C@H](O[C@H]3O[C@H](CN)[C@@H](O)C[C@H]3N)[C@@H](N)C[C@H]2N)[C@H](O)[C@@H](N)[C@@H]1O
value_prefix: =
numeric_readout: 7.8
//
compound: CCCCCCCCCCCCCCSC[C@@H]1O[C@@H](O[C@@H]2[C@@H](O)[C@H](O[C@@H]3O[C@@H](CN)[C@H](O)[C@@H](O)[C@@H]3N)[C@@H](N)C[C@H]2N)[C@@H](O)[C@H](N)[C@H]1O (stereo in doubt)
value_prefix: ≤
numeric_readout: 1.95
//
compound: CCCCCCCCSC[C@H]1O[C@H](O[C@@H]2[C@@H](O)[C@H](O[C@H]3O[C@H](CN)[C@@H](O)C[C@H]3N)[C@@H](N)C[C@H]2N)[C@H](O)[C@@H](N)[C@@H]1O
value_prefix: =
numeric_readout: 125
//
compound: CCCCCCCCCCCCCCSC[C@H]1O[C@H](O[C@@H]2[C@@H](O)[C@H](O[C@H]3O[C@H](CN)[C@@H](O)C[C@H]3N)[C@@H](N)C[C@H]2N)[C@H](O)[C@@H](N)[C@@H]1O
value_prefix: =
numeric_readout: 7.8
//
compound: CCCCCCCCCCSC[C@@H]1O[C@@H](O[C@@H]2[C@@H](O)[C@H](O[C@@H]3O[C@@H](CN)[C@H](O)[C@@H](O)[C@@H]3N)[C@@H](N)C[C@H]2N)[C@@H](O)[C@H](N)[C@H]1O (stereo in doubt)
value_prefix: ≤
numeric_readout: 1.95
